experiment: Microdialysis pharmacokinetics in the interstitium of a cutaneous metastasis (tumour); settings: human, po, 1250 mg
Please go through the items and note down their half-life.
Numbers only, in min.

[
  {
    "mol": "CCCCCOC(=O)Nc1nc(=O)n([C@@H]2O[C@H](C)[C@@H](O)[C@H]2O)cc1F",
    "half-life / min": 30
  }
]

query: What measured half-life goes with C[C@H]1O[C@@H](n2cc(F)c(N)nc2=O)[C@H](O)[C@@H]1O ?
result: 52.2

----------
Assay: Microdialysis pharmacokinetics in the interstitium of a cutaneous metastasis (tumour)
Settings: human, oral, 1250 mg m^−2
Protocol: Patients were in a supine position throughout the study period. Commercially available microdialysis probes (CMA 10®, CMA, Stockholm, Sweden) were inserted into a suitable cutaneous metastasis. […] To obtain absolute interstitial concentrations from dialysate concentrations, microdialysis probes were calibrated for in vivo recovery rates according to the retrodialysis method ([Müller et al, 1995],[1997]). […] The in vivo recovery value is calculated as: […]
Please go through the items and note down their Kp.
Numbers only.

A selection of reference data follows.
[
  {
    "molecule": "C[C@H]1O[C@@H](n2cc(F)c(N)nc2=O)[C@H](O)[C@@H]1O",
    "Kp": 0.67
  },
  {
    "molecule": "O=c1[nH]cc(F)c(=O)[nH]1 [FU, 5-fluorouracil, reference compound]",
    "Kp": 0.66
  }
]

Would you kindly look at the next entry?
query: What measured Kp goes with CCCCCOC(=O)Nc1nc(=O)n([C@@H]2O[C@H](C)[C@@H](O)[C@H]2O)cc1F ?
result: 1.76
